# assayed_target: T1, P2-AA-1HGe-D
# T1 chain: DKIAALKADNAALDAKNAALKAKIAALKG
# test_description: two-hybrid library CCmax;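 also: natural log of median RNA to DNA barcode read ratio; higher means stronger binding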
# measurement_setup: mean of both orientations
experimental_endpoint: interaction score

DEIAALEAQNAALQAENAALEAEIAALEG [P1-AA-1HGe-Q] ... 1.67
DEIAALEAWNAALWAENAALEAEIAALEG [P1-AA-1HGe-W] ... 1.27
DEIAALEAYNAALYAENAALEAEIAALEG [P1-AA-1HGe-Y] ... 1.57
DEIAALEATNAALTAENAALEAEIAALEG [P1-AA-1HGe-T] ... 1.17
DEIAALEASNAALSAENAALEAEIAALEG [P1-AA-1HGe-S] ... 1.63
